- measured.on: T1, 14-3-3ζ (human, UniProt P63104 1-245)
- T1 construct: N-terminal glycine retained after TEV cleavage of the His tag; 14-3-3 zeta, human, ORF purchased from GeneCopoeia, full-length construct; Dimer (~56 kDa); the stoichiometry n counts on the 14-3-3 monomer; also called full-length 14-3-3ζ; source: E. coli BL21 (DE3) pLysS, purified (Ni Sepharose, TEV cleavage, second Ni Sepharose pass); not shown: His tag, N-terminal, cleaved
- T1 sequence: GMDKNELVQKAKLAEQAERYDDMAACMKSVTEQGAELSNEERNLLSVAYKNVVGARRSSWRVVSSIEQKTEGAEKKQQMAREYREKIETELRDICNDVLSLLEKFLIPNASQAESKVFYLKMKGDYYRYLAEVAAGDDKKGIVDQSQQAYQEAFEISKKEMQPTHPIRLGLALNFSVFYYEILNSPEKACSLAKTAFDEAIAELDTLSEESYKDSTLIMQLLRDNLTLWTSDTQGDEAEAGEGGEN
- test: ITC; duplicate set of titrations; 5 uL aliquots of ~1-2 mM peptide titrated into the 1.4 mL cell with ~100-200 uM 14-3-3ζ; 25 °C; 50 mM sodium phosphate, 100 mM NaCl, 1 mM DTT, pH 6.8; one-site model; n per 14-3-3 monomer
- condition.details: both partners purified
Square brackets hold non-standard residues; d marks the D form. Ends that are not written are not given here. pS = N[C@@H](COP(=O)(O)O)C(=O)O
List of stoichiometry N values.
Form rule: numeric answer, no unit written next to it.

# binder, recorded.result
measured = [
    ("Ac-RKSA[pS]LP-NH2 (SMILES CC(=O)N[C@@H](CCCNC(=N)N)C(=O)N[C@@H](CCCCN)C(=O)N[C@@H](CO)C(=O)N[C@@H](C)C(=O)N[C@@H](COP(=O)(O)O)C(=O)N[C@@H](CC(C)C)C(=O)N1CCC[C@H]1C(N)=O, Chibby (Cby), human, residues 16-22 with S22P; also called Cby 7-mer S22P; 16RKSA(pS)LP22; source: synthetic peptide, bought: TUFTS University Core Facility) [pCby S22P 7-mer]", 1.02),
    ("KTPPRKSA[pS]LSNAHSLDR (Chibby (Cby), human, residues 12-29 with L24A; also called Cby L24A 18-mer; source: synthetic peptide, bought (GenScript USA Inc. or TUFTS University Core Facility)) [Cby 18-mer L24A]", 1.05),
]

With those in mind, consider the next binder.
Q. Annotate the binder KTPPRKSA[pS]LPNL (Chibby (Cby), human, residues 12-24 with S22P; also called Cby 13-mer S22P; source: synthetic peptide, bought: TUFTS University Core Facility) [pCby S22P 13-mer] with its measured stoichiometry N.
A. 1.02
